- Assay overview: cell viability in Huh7 cells, primary screen, cytotoxicity control for HCV replication inhibitor project, CellTiter-Glo luminescence, basal, 48 h (AID 1143);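 also: Huh7 hepatoma cells carrying a hepatitis C replication reporter with no stimulus; test concentration not given here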
- Experimental setup: Huh7 HCV replicon, higher = more signal, called active from +8 up or from −8 down
Items are presented alongside their recorded z-score.
Measure: z-score

>>> measured("C=C(CCCC)C(=O)CC[C@@H](OC(C)=O)c1cccc(OCCO)c1")
-7.53
>>> measured("O=C(CS)NCCCCCNC(=O)[C@H]1C[C@H]2C(=O)N3CCC[C@H]3C(=O)N2[C@H]1c1cccc(OCCO)c1")
0.0319
>>> measured("COc1ccc(O[C@H]2C=C[C@@H](c3ccccc3)O[C@@H]2COC(=O)CCC(C)=NO[C@@H](C)c2cc(-c3c(C)cc(C)cc3C)no2)cc1")
-0.961
>>> measured("COC(=O)[C@@]1(Cc2ccc(F)cc2)[C@H]2c3cc(C(=O)N(C)C)n(Cc4ccc(OC)c(OC)c4)c3C[C@H]2CN1C(=O)c1ccccc1")
-3.26

Attribution: PubChem BioAssay
